Substrate: O=C1CCCCC1
Test: purified protein
Format: biochemical, Streptosporangium roseum
Details: 30 mM cyclopropylamine, 0.5 mM NADPH, Tris pH 8, 25 °C
REPORTED PROPERTY: kcat (s⁻¹)

PROTEIN | REPORTED PROPERTY | VAL
SrIRED (Streptosporangium roseum DSM 43021; P203A/T241G) (protein) MRDTDVTVLGLGLMGQALAGAFLKDGHATTVWNRSEGKAGQLAEQGAVLASSARDAAEASPLVVVCVSDHAAVRAVLDPLGDVLAGRVLVNLTSGTSEQARATAEWAAERGITYLDGAIMAIPQVVGTADAFLLYSGPEAAYEAHEPTLRSLGAGTTYLGADHGLSSLYDVALLGIMWGTLNSFLHGAALLGTAKVEATTFAAFANRWIEAVTGFVSAYAGQVDQGAYPALDATIDTHVAGVDHLIHESEAAGVNTELPRLVRTLADRALAGGQGGLGYAAMIEQFRSPSA | kcat | 49.3
